Biological target: wild-type α7 nAChR (Rattus norvegicus)
Experiment: Two-electrode voltage-clamp recording of Xenopus oocytes expressing wild-type α7
Parameter: pEC50
In simple prose, pEC50 is minus the logarithm base ten of a concentration in moles per litre.

Please review the following examples before continuing.
Molecule	pEC50
CNCC/C=C/c1cccnc1	3.62
O=c1cccc2n1C[C@@H]1CNC[C@H]2C1	4.89
COc1ccc(/C=C2\CCCN=C2c2cccnc2)c(OC)c1	5.30

Entry C[N+](C)(C)CCO , system wild-type α7 nAChR (Rattus norvegicus): what pEC50 was measured?
3.52

----------
Target: rat α7 TM2 T6'S (Rattus norvegicus, UniProt Q05941, T267S)
Assay: Two-electrode voltage-clamp recording of Xenopus oocytes expressing α7 TM2 T6'S mutant
Conditions: T6'S
Parameter: % agonist (%)
I only need the number, in %, no unit after it.

Compound	Parameter	Test value
CN1[C@@H]2CC[C@H]1C[C@@H](OC(=O)c1c[nH]c3ccccc13)C2 [Tropisetron]	% agonist	30

# % agonist lookup, item COc1ccc(/C=C2\CCCN=C2c2cccnc2)c(OC)c1 [GTS-21 (DMXB)]
12

----------
Target: rat α7 TM2 T6'S (Rattus norvegicus, UniProt Q05941, T267S)
Assay: Two-electrode voltage-clamp recording of Xenopus oocytes expressing α7 TM2 T6'S mutant
Parameter: pEC50
Reminder that pEC50 means the negative base-10 logarithm of the concentration expressed in mol/L.

Examples from the recorded data:
Molecule	System tested	Test value
O=c1cccc2n1C[C@@H]1CNC[C@H]2C1	rat α7 TM2 T6'S (Rattus norvegicus, UniProt Q05941, T267S)	4.37
C[N+](C)(C)CCO	rat α7 TM2 T6'S (Rattus norvegicus, UniProt Q05941, T267S)	2.70
COc1ccc(/C=C2\CCCN=C2c2cccnc2)c(OC)c1	rat α7 TM2 T6'S (Rattus norvegicus, UniProt Q05941, T267S)	5.52

# context switch: different molecule, same pEC50
Quick check: pEC50 of CNCC/C=C/c1cccnc1 ?
3.40

----------
Target: L247T mutant (UniProt P22770, L270T, species not given)
Type: cell-based
Conditions: L247T
Parameter: type of activity (agonist / antagonist)

Worked cases, answers included:
Molecule	type of activity (agonist / antagonist)
COc1ccc(/C=C2\CCCN=C2c2cccnc2)c(OC)c1	full
NCCc1c[nH]c2ccc(O)cc12	agonist
C[N+](C)(C)CCCCCC[N+](C)(C)C	agonist
COc1cc2c3cc1Oc1cc(ccc1O)C[C@@H]1c4c(cc(OC)c(O)c4Oc4ccc(cc4)C[C@@H]3N(C)CC2)CC[N+]1(C)C	agonist

Kindly consider the entry below.
Given the entry [Zn+2] , report its measured type of activity (agonist / antagonist).
agonist

----------
Biological target: rat α7 TM2 T6'S (Rattus norvegicus, UniProt Q05941, T267S)
Experiment: Two-electrode voltage-clamp recording of Xenopus oocytes expressing α7 TM2 T6'S mutant
Settings: EC50, T6'S column
Parameter: EC50

Suppose we examine the molecule C[N+](C)(C)CCO [Choline] ; what EC50 value has been reported?
~360 µM

----------
Recorded % agonist by entry
Target: wild-type α7 nAChR (Rattus norvegicus, UniProt Q05941)
Test: Two-electrode voltage-clamp recording of Xenopus oocytes expressing wild-type α7
Details: Wild type

Compound	% agonist
C[N+](C)(C)CCO	100% agonist 300 μM

Recall the recorded % agonist for CN1[C@@H]2CC[C@H]1C[C@@H](OC(=O)c1c[nH]c3ccccc13)C2 with wild-type α7 nAChR (Rattus norvegicus, UniProt Q05941) and state it.
38%

Request: % agonist, test system wild-type α7 nAChR (Rattus norvegicus, UniProt Q05941), entry COc1ccc(/C=C2\CCCN=C2c2cccnc2)c(OC)c1
32%

Query the reported % agonist for wild-type α7 nAChR (Rattus norvegicus, UniProt Q05941); item: CNCC/C=C/c1cccnc1
16%

Give the reported % agonist for O=C1NCC2(CN3CCC2CC3)O1 (centres unmarked) (system: wild-type α7 nAChR (Rattus norvegicus, UniProt Q05941)).
78% agonist 10 μM

----------
Target: rat α7 TM2 T6'S (Rattus norvegicus, UniProt Q05941, T267S)
Assay: Two-electrode voltage-clamp recording of Xenopus oocytes expressing α7 TM2 T6'S mutant
Conditions: T6'S
Parameter: % agonist

Compound	% agonist
CNCC/C=C/c1cccnc1	18% agonist

Lookup: % agonist / rat α7 TM2 T6'S (Rattus norvegicus, UniProt Q05941, T267S) / O=C1NCC2(CN3CCC2CC3)O1 (stereo not drawn)
90% agonist 30 μM

Please provide the recorded % agonist for C[N+](C)(C)CCO , tested on rat α7 TM2 T6'S (Rattus norvegicus, UniProt Q05941, T267S).
95% agonist 2 mM

// provenance: patent US20050170360A1
